Biological target: CDK7/Cyclin H/MAT1 complex (Homo sapiens, UniProt P50613)
Sequence (P50613 whole entry): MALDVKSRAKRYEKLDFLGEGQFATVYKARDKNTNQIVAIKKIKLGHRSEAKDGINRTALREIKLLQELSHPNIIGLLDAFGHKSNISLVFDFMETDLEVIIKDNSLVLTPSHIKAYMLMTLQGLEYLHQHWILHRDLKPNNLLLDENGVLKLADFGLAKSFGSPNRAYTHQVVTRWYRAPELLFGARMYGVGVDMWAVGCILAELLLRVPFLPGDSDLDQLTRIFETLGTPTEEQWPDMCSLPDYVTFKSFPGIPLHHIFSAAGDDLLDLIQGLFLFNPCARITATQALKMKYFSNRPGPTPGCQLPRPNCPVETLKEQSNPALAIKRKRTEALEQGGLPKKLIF
Sequence (P51946 whole entry partner): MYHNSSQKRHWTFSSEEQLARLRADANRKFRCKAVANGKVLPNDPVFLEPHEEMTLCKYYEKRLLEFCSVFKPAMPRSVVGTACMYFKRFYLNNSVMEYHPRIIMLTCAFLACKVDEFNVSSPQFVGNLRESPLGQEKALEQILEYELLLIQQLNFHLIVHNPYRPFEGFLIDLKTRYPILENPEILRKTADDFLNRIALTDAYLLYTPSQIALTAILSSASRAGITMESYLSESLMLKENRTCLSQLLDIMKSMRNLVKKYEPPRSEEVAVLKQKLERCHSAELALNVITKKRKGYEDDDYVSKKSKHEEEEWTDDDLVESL
Sequence (P51948 whole entry partner): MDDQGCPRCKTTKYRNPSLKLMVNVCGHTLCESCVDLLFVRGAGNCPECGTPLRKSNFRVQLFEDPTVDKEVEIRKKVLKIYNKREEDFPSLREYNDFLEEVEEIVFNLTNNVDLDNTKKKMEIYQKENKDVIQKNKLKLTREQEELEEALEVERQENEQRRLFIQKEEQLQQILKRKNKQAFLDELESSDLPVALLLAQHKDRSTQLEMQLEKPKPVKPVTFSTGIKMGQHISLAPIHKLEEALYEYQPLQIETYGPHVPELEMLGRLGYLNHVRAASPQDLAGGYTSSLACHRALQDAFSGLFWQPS
Assay: CDK7 kinase inhibition assay (Caliper/LabChip EZ Reader)
Conditions: CDK7/Cyclin H/MAT1 6 nM, ATP 2 mM, 35 min at 27° C.
pIC50: −log10 of the molar value.
pIC50 values by entry

Some solved cases for reference:
{"columns": ["Compound", "Result type", "Result value"],
 "data": [
  ["FC(F)(F)c1cnc(NC2CCCNC2)nc1-c1c[nH]c2cc(-c3cn[nH]c3)ccc12 (centres unmarked)", "pIC50", "> 7.70"],
  ["FC(F)(F)c1cnc(NC2CCCNC2)nc1-c1c[nH]c2ccccc12 (centres unmarked)", "pIC50", "> 7.70"],
  ["CCc1cnc(NC2CCCNC2)nc1-c1c[nH]c2c(F)cccc12 (centres unmarked)", "pIC50", "> 7.70"]
]}

// next item, pIC50 requested
Entry OC1CCC(c2cccc3c(-c4nc(NC5CCCNC5)ncc4C(F)(F)F)c[nH]c23)CC1 (centres unmarked) [Compound 185] , pIC50 reported as > 7.70

* * *

Biological target: CDK12 (aa686-1082)/Cyclin K complex (Homo sapiens, UniProt Q9NYV4)
Construct: CDK12 (aa686-1082)/Cyclin K complex
Sequence (Q9NYV4 686-1082): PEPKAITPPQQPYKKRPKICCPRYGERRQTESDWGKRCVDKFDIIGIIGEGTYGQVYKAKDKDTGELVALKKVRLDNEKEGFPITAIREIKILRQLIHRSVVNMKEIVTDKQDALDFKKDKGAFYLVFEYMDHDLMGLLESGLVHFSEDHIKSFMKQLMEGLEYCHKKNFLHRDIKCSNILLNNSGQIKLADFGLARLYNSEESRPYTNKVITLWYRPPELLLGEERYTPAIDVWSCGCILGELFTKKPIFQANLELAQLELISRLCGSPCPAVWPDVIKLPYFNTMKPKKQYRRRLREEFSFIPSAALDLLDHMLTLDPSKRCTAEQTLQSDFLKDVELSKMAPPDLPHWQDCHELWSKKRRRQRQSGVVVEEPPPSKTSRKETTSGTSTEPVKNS
Sequence (O75909 whole entry partner, the tested form may be a part): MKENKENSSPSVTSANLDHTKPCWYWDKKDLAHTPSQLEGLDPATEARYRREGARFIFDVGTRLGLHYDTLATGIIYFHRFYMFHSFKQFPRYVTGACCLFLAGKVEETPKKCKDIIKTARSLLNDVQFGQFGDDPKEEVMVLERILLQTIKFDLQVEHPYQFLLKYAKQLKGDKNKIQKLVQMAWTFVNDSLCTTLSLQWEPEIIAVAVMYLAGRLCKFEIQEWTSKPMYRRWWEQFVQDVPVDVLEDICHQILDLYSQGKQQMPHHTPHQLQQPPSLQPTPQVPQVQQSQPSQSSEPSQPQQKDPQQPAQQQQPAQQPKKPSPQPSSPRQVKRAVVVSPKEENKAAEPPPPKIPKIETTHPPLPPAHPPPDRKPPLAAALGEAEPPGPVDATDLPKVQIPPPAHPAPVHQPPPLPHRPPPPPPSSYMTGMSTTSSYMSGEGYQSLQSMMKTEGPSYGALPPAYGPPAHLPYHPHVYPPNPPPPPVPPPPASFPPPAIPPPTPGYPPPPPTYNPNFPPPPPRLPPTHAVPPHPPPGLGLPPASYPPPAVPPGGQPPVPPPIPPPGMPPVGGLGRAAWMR
Experiment: CDK12 kinase inhibition assay (Caliper/LabChip EZ Reader)
Settings: CDK12 (aa686-1082)/Cyclin K 50 nM, ATP 2 mM, 3 hr at 27° C.
pIC50: −log10 of the molar value.
Result type: pIC50

{"columns": ["Compound", "Target or test system", "pIC50"],
 "data": [
  ["CCC1(O)CCN(C(=O)c2ccc3c(-c4nc(NC5CCCNC5)ncc4C(F)(F)F)c[nH]c3c2)C1 (centres unmarked)", "CDK12 (aa686-1082)/Cyclin K complex (Homo sapiens, UniProt Q9NYV4)", "5.30 to 6.70"],
  ["CS(=O)(=O)c1ccc2c(-c3nc(NC4CCCN(C5CC5)C4)ncc3C(F)(F)F)c[nH]c2c1 (centres unmarked)", "CDK12 (aa686-1082)/Cyclin K complex (Homo sapiens, UniProt Q9NYV4)", "5.30 to 6.70"],
  ["FC(F)(F)c1cnc(NC2CCCNC2)nc1-c1c[nH]c2cc(-c3ccc4c(c3)OCCO4)ccc12 (centres unmarked)", "CDK12 (aa686-1082)/Cyclin K complex (Homo sapiens, UniProt Q9NYV4)", "5.30 to 6.70"],
  ["CS(=O)(=O)c1cccc2c(-c3nc(NC4CCCNC4)ncc3C(F)(F)F)c[nH]c12 (centres unmarked)", "CDK12 (aa686-1082)/Cyclin K complex (Homo sapiens, UniProt Q9NYV4)", "5.30 to 6.70"]
]}

Entry CC(C)c1cnc(NC2CCCNC2)nc1-c1c[nH]c2ccccc12 (centres unmarked) , pIC50 reported as ≤ 5.30

Entry Clc1cnc(NC2CCCNC2)nc1-c1c[nH]c2ccncc12 (centres unmarked) , pIC50 reported as 5.30 to 6.70

* * *

Target: CDK12 (aa686-1082)/Cyclin K complex (Homo sapiens)
Construct: CDK12 (aa686-1082)/Cyclin K complex
Test: CDK12 kinase inhibition assay (Caliper/LabChip EZ Reader)
Conditions: CDK12 (aa686-1082)/Cyclin K 50 nM, ATP 2 mM, 3 hr at 27° C.
IC50 values by entry

{"columns": ["Compound", "Result value"],
 "data": [
  ["FC(F)(F)c1cnc(N[C@H]2CCCNC2)nc1-c1c[nH]c2cc(-c3ccc4ncsc4c3)ccc12 [Compound 343]", "0.2 to 5 µM"],
  ["CCc1cnc(NC2CCCNC2)nc1-c1c[nH]c2c(S(=O)O)cccc12 (centres unmarked) [Compound 363]", "≥ 5 µM"],
  ["N#Cc1ccc2c(-c3nc(NC4CCCNC4)ncc3OC(F)F)c[nH]c2c1 (centres unmarked) [Compound 301]", "≥ 5 µM"]
]}

Entry C#Cc1cnc(NC2CCCNC2)nc1-c1c[nH]c2ccccc12 (centres unmarked) [Compound 194] , IC50 reported as 0.2 to 5 µM

Entry CNC(=O)c1cccc2c(-c3nc(NC4CCCNC4)ncc3C(F)(F)F)cn(COC)c12 (centres unmarked) [Compound 304] , IC50 reported as ≥ 5 µM

* * *

pIC50 values by entry
Molecular target: CDK2/Cyclin E1 complex (Homo sapiens)
Experiment: CDK2 kinase inhibition assay (Caliper/LabChip EZ Reader)
Settings: CDK2/Cyclin E1 0.5 nM, ATP 2 mM, 35 min at 27° C.
pIC50: −log10 of the molar value.

{"columns": ["Compound", "Result value"],
 "data": [
  ["CCc1cnc(NC2CCCNC2)nc1-c1c[nH]c2c(S(C)(=O)=O)c(C#N)ccc12 (centres unmarked)", "≤ 5.30"]
]}

Entry CNS(=O)(=O)c1ccc2c(-c3nc(N[C@H]4CCCNC4)ncc3C(F)(F)F)c[nH]c2c1 , pIC50 reported as 5.30 to 6.70

Entry FC(F)(F)Sc1cnc(NC2CCCNC2)nc1-c1c[nH]c2ccccc12 (centres unmarked) , pIC50 reported as 5.30 to 6.70

Entry Clc1cnc(N[C@H]2CCCNC2)nc1-c1c[nH]c2c(N3CCOCC3)cccc12 , pIC50 reported as 5.30 to 6.70

* * *

Target: CDK7/Cyclin H/MAT1 complex (Homo sapiens)
Test: CDK7 kinase inhibition assay (Caliper/LabChip EZ Reader)
Conditions: CDK7/Cyclin H/MAT1 6 nM, ATP 2 mM, 35 min at 27° C.
pIC50: −log10 of the molar value.
Result type: pIC50

{"columns": ["Molecule", "Result type", "Result value"],
 "data": [
  ["FC(F)(F)c1cnc(NC2CCCNC2)nc1-c1c[nH]c2c(-c3cn[nH]c3)cccc12 (centres unmarked)", "pIC50", "> 7.70"]
]}

The molecule CS(=O)(=O)c1ccc2c(-c3nc(NC4CCCNC4)ncc3C(F)(F)F)c[nH]c2c1 (centres unmarked) , tested on CDK7/Cyclin H/MAT1 complex (Homo sapiens), showed pIC50 of > 7.70

The molecule N#Cc1ccc2c(-c3nc(NC4CNCC(F)C4)ncc3C(F)(F)F)c[nH]c2c1 (centres unmarked) , tested on CDK7/Cyclin H/MAT1 complex (Homo sapiens), showed pIC50 of 6.70 to 7.70

The molecule Cc1nc(-c2ccc3c(-c4nc(NC5CCCNC5)ncc4C(F)(F)F)c[nH]c3c2)n[nH]1 (centres unmarked) , tested on CDK7/Cyclin H/MAT1 complex (Homo sapiens), showed pIC50 of > 7.70

* * *

pIC50 values by entry
Target: CDK2/Cyclin E1 complex (Homo sapiens)
Test: CDK2 kinase inhibition assay (Caliper/LabChip EZ Reader)
Settings: CDK2/Cyclin E1 0.5 nM, ATP 2 mM, 35 min at 27° C.
pIC50: −log10 of the molar value.

Some solved cases for reference:
{"columns": ["Molecule", "Result value"],
 "data": [
  ["CS(=O)(=O)c1cccn2c(C3CNCC(Nc4ncc(C(F)(F)F)c(-c5c[nH]c6ccccc56)n4)C3)nnc12 (stereo not shown)", "5.30 to 6.70"],
  ["CN1CCC[C@H](Nc2ncc(C(F)(F)F)c(-c3c[nH]c4cc(S(C)(=O)=O)ccc34)n2)C1", "≤ 5.30"],
  ["CCC1CCC(Nc2ncc(C(F)(F)F)c(-c3c[nH]c4ccccc34)n2)CN1 (stereo not shown) [Compound 217]", "5.30 to 6.70"],
  ["CCN1CCCC(Nc2ncc(C(F)(F)F)c(-c3c[nH]c4cc(C#N)ccc34)n2)C1 (stereo not shown)", "5.30 to 6.70"],
  ["CCN1CCCC(Nc2ncc(C(F)(F)F)c(-c3c[nH]c4cc(S(C)(=O)=O)ccc34)n2)C1 (stereo not shown)", "5.30 to 6.70"],
  ["CC1CNCC(Nc2ncc(Cl)c(-c3c[nH]c4ccccc34)n2)C1 (stereo not shown) [Compound 182]", "≤ 5.30"],
  ["CC(C)(O)CCc1ccc2c(-c3nc(NC4CCCNC4)ncc3C(F)(F)F)c[nH]c2c1 (stereo not shown)", "≤ 5.30"],
  ["OCc1cccc(-c2ccc3c(-c4nc(NC5CCCNC5)ncc4C(F)(F)F)c[nH]c3c2)n1 (stereo not shown)", "5.30 to 6.70"]
]}

The molecule FC(F)Sc1ccc2c(-c3nc(NC4CCCNC4)ncc3C(F)(F)F)c[nH]c2c1 (stereo not shown) , tested on CDK2/Cyclin E1 complex (Homo sapiens), showed pIC50 of 5.30 to 6.70

The molecule CC(O)c1cnc(NC2CCCNC2)nc1-c1c[nH]c2ccccc12 (stereo not shown) [Compound 247] , tested on CDK2/Cyclin E1 complex (Homo sapiens), showed pIC50 of ≤ 5.30

The molecule CC(O)c1cnc(NC2CCCNC2)nc1-c1c[nH]c2ccccc12 (stereo not shown) [Compound 238] , tested on CDK2/Cyclin E1 complex (Homo sapiens), showed pIC50 of ≤ 5.30

The molecule O=S1(=O)CCn2cc(-c3nc(N[C@H]4CCCNC4)ncc3C(F)(F)F)c3cccc1c32 , tested on CDK2/Cyclin E1 complex (Homo sapiens), showed pIC50 of ≤ 5.30

The molecule N#Cc1cnc(NC2CCCNC2)nc1-c1c[nH]c2ccccc12 (stereo not shown) , tested on CDK2/Cyclin E1 complex (Homo sapiens), showed pIC50 of 5.30 to 6.70

The molecule O=c1[nH]cc(-c2ccc3c(-c4nc(NC5CCCNC5)ncc4C(F)(F)F)c[nH]c3c2)c(=O)[nH]1 (stereo not shown) , tested on CDK2/Cyclin E1 complex (Homo sapiens), showed pIC50 of ≤ 5.30

The molecule CC1CCNCC1Nc1ncc(Cl)c(-c2c[nH]c3ccccc23)n1 (stereo not shown) [Compound 126] , tested on CDK2/Cyclin E1 complex (Homo sapiens), showed pIC50 of 5.30 to 6.70

The molecule CS(=O)(=O)c1ccc2c(-c3nc(NC4CCCN(C5CC5)C4)ncc3C(F)(F)F)c[nH]c2c1 (stereo not shown) , tested on CDK2/Cyclin E1 complex (Homo sapiens), showed pIC50 of ≤ 5.30
